Recorded values, source patent US11655235B2.

Target: Recombinant human FAP (Homo sapiens, UniProt Q12884)
Construct: purchased R&D systems
Sequence (Q12884 1-760): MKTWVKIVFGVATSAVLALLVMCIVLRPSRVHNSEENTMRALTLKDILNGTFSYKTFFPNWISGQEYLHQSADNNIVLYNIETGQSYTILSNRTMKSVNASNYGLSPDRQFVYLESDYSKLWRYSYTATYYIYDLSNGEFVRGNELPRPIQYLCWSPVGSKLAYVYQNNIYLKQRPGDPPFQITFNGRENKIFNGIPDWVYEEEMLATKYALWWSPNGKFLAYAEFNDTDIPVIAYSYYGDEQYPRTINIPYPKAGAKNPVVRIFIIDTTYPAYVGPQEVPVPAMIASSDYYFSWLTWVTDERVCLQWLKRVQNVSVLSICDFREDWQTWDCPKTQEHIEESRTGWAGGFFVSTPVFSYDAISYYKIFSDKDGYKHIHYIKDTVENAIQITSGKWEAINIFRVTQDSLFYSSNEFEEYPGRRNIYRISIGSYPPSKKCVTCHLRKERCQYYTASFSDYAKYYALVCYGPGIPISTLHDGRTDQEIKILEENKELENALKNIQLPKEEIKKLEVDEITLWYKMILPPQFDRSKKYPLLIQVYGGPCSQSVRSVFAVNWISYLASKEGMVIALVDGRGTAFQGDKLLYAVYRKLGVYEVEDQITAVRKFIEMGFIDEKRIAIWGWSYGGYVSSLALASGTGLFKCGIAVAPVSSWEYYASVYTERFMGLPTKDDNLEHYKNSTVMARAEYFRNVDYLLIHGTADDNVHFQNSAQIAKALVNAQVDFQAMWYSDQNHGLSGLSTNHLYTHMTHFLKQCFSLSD
Test: FAP FRET assay, FGF21-sequence FRET peptide substrate
Format: biochemical
Conditions: FRET peptide with human FGF21 sequence, 6 μM, 37° C.
pIC50: −log10 of the molar value.
OBSERVABLE: pIC50

1) CN(c1ccc(OC(F)(F)F)c2ncccc12)[C@H]1CCN(CC(=O)N2C[C@@H](F)C[C@H]2C#N)C1; 8.31
2) N#C[C@@H]1C[C@H](F)CN1C(=O)CN1CCC(Nc2ccc(OC(F)(F)F)c3ncccc23)CC1; 8.24
3) N#C[C@@H]1C[C@H](F)CN1C(=O)CN1CCC(Nc2ccc(C(=O)Nc3ncccn3)c3ncccc23)CC1; 8.74
4) N#C[C@@H]1C[C@H](F)CN1C(=O)CN1CC[C@@H](Nc2cnc3ncccc3c2)C1; 8.09
5) COc1ccc2c(N[C@@H]3CCN(CC(=O)N4C[C@@H](F)C[C@H]4C#N)C3)ccnc2c1; 7.61
6) N#C[C@@H]1CCCN1C(=O)CN1CCC(Nc2cc(=O)oc3ccccc23)CC1; 7.00
7) COc1ccc2nccc(N[C@@H]3CCN(CC(=O)N4CCC[C@H]4C#N)C3)c2c1; 8.00
8) N#C[C@@H]1C[C@H](F)CN1C(=O)CN1CC[C@H](Nc2ccc(O)c3ncccc23)C1; 7.85
9) N#Cc1ccc(N[C@H]2CCN(CC(=O)N3C[C@@H](F)C[C@H]3C#N)C2)c2cccnc12; 8.82
10) CC(=O)Nc1ccc(NC2CCN(CC(=O)N3CCC[C@H]3C#N)CC2)c2cccnc12; 7.89
11) N#C[C@@H]1CCCN1C(=O)CN1CC[C@@H](Nc2ccnc3c(F)cccc23)C1; 8.14
12) N#C[C@@H]1C[C@H](F)CN1C(=O)CN1CC[C@H](Nc2ccc(C(=O)Nc3cccnc3)c3ncccc23)C1; 9.15
13) N#C[C@@H]1CCCN1C(=O)CN1CC[C@@H](Nc2cc(F)c3ncccc3c2)C1; 8.12
14) COc1ccc2ncc(N(C)C3CCN(CC(=O)N4CCC[C@H]4C#N)CC3)cc2c1; 8.24
15) N#C[C@@H]1C[C@H](F)CN1C(=O)CN1CC[C@@H](Nc2ccnc3ccc(F)cc23)C1; 7.71
16) N#C[C@@H]1C[C@H](F)CN1C(=O)CN1CCC(Nc2ccc(F)c3ncccc23)CC1; 8.20
